# Target under test: Growth hormone secretagogue receptor type 1 (Homo sapiens)
# Assay comment: Agonist activity at human GHS receptor expressed in H4 glioma cells
# Assay type: cell-based
Property measured: Ki (nM)

Compound	Property measured	Bound type	Value observed
CC(C)(N)C(=O)N[C@H](COCc1ccccc1)c1nnn(C(/C=C/c2ccccc2)CC#N)n1 (single isomer, unassigned; diastereomer 2)	Ki	=	2510
CC(C)(N)C(=O)N[C@H](COCc1ccccc1)c1nnnn1C(CC#N)COc1ccccc1F (single isomer, unassigned; diastereomer 1)	Ki	=	18
CC(C)(N)C(=O)N[C@H](COCc1ccccc1)c1nnn(CCC(C#N)c2ccccc2)n1 (mixture of isomers)	Ki	>	5000

---

# Target under test: Growth hormone secretagogue receptor type 1 (Homo sapiens)
# Assay comment: Agonist activity at human GHS receptor expressed in H4 glioma cells
# Format: cell-based
pKi: −log10 of the molar value.
Record y whenever pKi is at 7 or higher; record n when lower.

Molecule	Category label
CC(C)(N)C(=O)N[C@H](COCc1ccccc1)c1nnnn1[C@@H](CC#N)COc1ccccc1O	n
CC(C)(N)C(=O)N[C@H](COCc1ccccc1)c1nnnn1[C@H](CC#N)COc1ccccn1	y
CC(C)(N)C(=O)N[C@H](COCc1ccccc1)c1nnn(C(CC#N)CCc2ccccc2)n1 (single isomer, unassigned; diastereomer 2)	n
CC(C)(N)C(=O)N[C@H](COCc1ccccc1)c1nnnn1C(CC#N)CCc1ccccc1 (single isomer, unassigned; diastereomer 2)	n
CC(C)(N)C(=O)N[C@H](COCc1ccccc1)c1nnn(CC(C#N)Cc2ccccc2)n1 (mixture of isomers)	n
CC(C)(N)C(=O)N[C@H](COCc1ccccc1)c1nnnn1CCC(C#N)c1ccccc1 (mixture of isomers)	n
CC(C)(N)C(=O)N[C@H](COCc1ccccc1)c1nnnn1C(CC#N)COc1ccccc1F (single isomer, unassigned; diastereomer 2)	n
CC(C)(N)C(=O)N[C@H](COCc1ccccc1)c1nnnn1[C@H](CC#N)COc1ccccc1O	y
CC(C)(N)C(=O)N[C@H](COCc1ccccc1)c1nnnn1C(/C=C/c1ccccc1)CC#N (single isomer, unassigned; diastereomer 1)	y
CC(C)(N)C(=O)N[C@H](COCc1ccccc1)c1nnnn1[C@@H](CC#N)COc1ccccc1	n
CC(C)(N)C(=O)N[C@H](COCc1ccccc1)c1nnnn1C(/C=C/c1ccccc1)CC#N (single isomer, unassigned; diastereomer 2)	n
CC(C)(N)C(=O)N[C@H](COCc1ccccc1)c1nnnn1[C@H](CC#N)COc1ccccc1	y
CC(C)(N)C(=O)N[C@H](COCc1ccccc1)c1nnn(C(CC#N)CCc2ccccc2)n1 (single isomer, unassigned; diastereomer 1)	n

---

# Assay comment: Oral bioavailability in dog
# Type: ADME, organism-based, Canis lupus familiaris
# Recorded conditions: in vivo

Chemical smiles	bioavailability [%]
CC(C)(N)C(=O)N[C@H](COCc1ccccc1)c1nnnn1[C@H](CC#N)COc1ccccn1	55

---

# Target under test: Growth hormone secretagogue receptor type 1 (Homo sapiens, UniProt Q92847)
# Sequence (Q92847 whole entry): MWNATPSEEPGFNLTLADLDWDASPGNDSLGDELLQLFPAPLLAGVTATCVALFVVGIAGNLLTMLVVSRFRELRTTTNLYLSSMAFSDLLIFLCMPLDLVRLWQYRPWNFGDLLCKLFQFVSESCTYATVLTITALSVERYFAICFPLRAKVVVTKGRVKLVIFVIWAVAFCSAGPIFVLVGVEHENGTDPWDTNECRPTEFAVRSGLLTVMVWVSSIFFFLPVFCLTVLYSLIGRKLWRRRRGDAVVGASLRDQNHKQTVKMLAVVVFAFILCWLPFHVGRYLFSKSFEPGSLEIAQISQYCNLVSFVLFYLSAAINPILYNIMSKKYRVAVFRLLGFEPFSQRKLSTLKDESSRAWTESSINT
# Assay comment: Agonist activity at human GHS receptor expressed in H4 glioma cells assessed as intracellular calcium concentration by FLIPR assay
Please respond with met when measured EC50 is strictly beneath 20 nM, and with not met in all other cases.

Compound	Category label
CC(C)(N)C(=O)N[C@H](COCc1ccccc1)c1nnn(C(/C=C/c2ccccc2)CC#N)n1 (single isomer, unassigned; diastereomer 2)	not met
CC(C)(N)C(=O)N[C@H](COCc1ccccc1)c1nnn(C(/C=C/c2ccccc2)CC#N)n1 (single isomer, unassigned; diastereomer 1)	met
CC(C)(N)C(=O)N[C@H](COCc1ccccc1)c1nnnn1C(CC#N)CCc1ccccc1 (single isomer, unassigned; diastereomer 1)	met
CC(C)(N)C(=O)N[C@H](COCc1ccccc1)c1nnn(C(CC#N)CCc2ccccc2)n1 (single isomer, unassigned; diastereomer 2)	not met
CC(C)(N)C(=O)N[C@H](COCc1ccccc1)c1nnn(CCC(C#N)c2ccccc2)n1 (mixture of isomers)	not met
CC(C)(N)C(=O)N[C@H](COCc1ccccc1)c1nnnn1[C@H](CC#N)COc1ccccn1	met
CC(C)(N)C(=O)N[C@H](COCc1ccccc1)c1nnnn1C(CC#N)COc1ccccc1F (single isomer, unassigned; diastereomer 1)	met
